Tested on: NCI-H226 lung
Experiment: NCI-60 one-dose screen, 48 h (100 = growth as untreated, 0 = no growth, -100 = all killed)
Conditions: 10 µM unless noted
The panel holds about 83,000 compounds, 20% with a hit somewhere; the sample as a whole holds those more often.
measured_parameter: growth (%)
Kindly answer with a numeric value in %, unit omitted.

Value of growth reported for the compound O=C1C(SCc2ccccc2)=C(Cl)CN1c1ccc(Cl)cc1 is 99

Value of growth reported for the compound NCCNC(=O)c1cccc(COc2ccccc2NC(=O)c2cc(Cl)c(Cl)[nH]2)c1 is 96.4

Value of growth reported for the compound CS(=O)(=O)c1nccc(-c2c(-c3cccc(OCc4ccc(Cl)c(C(F)(F)F)c4)c3)nc3sccn23)n1 is 23.6

---

System: OVCAR-8 ovarian
Assay: NCI-60 one-dose screen, 48 h
Conditions: 10 µM unless noted
The panel holds about 83,000 compounds, 20% with a hit somewhere; the sample as a whole holds those more often. Activity calls are given as the source filed them. How the source made its calls: active means growth percent below 10; inactive means the rest.
Assign a class; possible classes are active, inactive

// query I would be grateful if you could indicate the recorded call for O=C(CN1CCN(c2cc(=O)[nH]c3ccc(F)cc23)CC1)N(c1ccccc1)c1ccccc1 .
// result inactive

// query I would be grateful if you could indicate the recorded call for O=C(/C=C/c1cc(Cl)ccc1Cl)Nc1ncc(Cc2ccc(Cl)cc2)s1 .
// result active

// query I would be grateful if you could indicate the recorded call for COc1ccc2[nH]cc(-c3nc(N)nnc3-c3cn(C)c4ccc(Br)cc34)c2c1 .
// result inactive

// query I would be grateful if you could indicate the recorded call for Cc1ccc(C(=O)CSc2nnc(-c3ccc(-c4ccc(Cl)cc4)nc3C)o2)cc1 .
// result inactive

// query I would be grateful if you could indicate the recorded call for C=C(C)[C@@H]1CC[C@]2(C(=O)NC3CCCCC3)CC[C@]3(C)[C@H](CC[C@@H]4[C@@]5(C)CC[C@H](N)C(C)(C)[C@@H]5CC[C@]43C)[C@@H]12 .
// result inactive

// query I would be grateful if you could indicate the recorded call for Cc1ccc2c(n1)C(=O)C(Cl)=C(Nc1ccc(C(=O)OC(C)(C)C)cc1)C2=O .
// result inactive

// query I would be grateful if you could indicate the recorded call for COc1ccc(/C=N/NC(=O)c2c(N)nn(C)c2Nc2ccccc2)cc1Oc1ccccc1 .
// result inactive

// query I would be grateful if you could indicate the recorded call for O=C(N/N=C\c1ccc(F)cc1)c1ccc2nc(-c3ccc(Br)cc3)[nH]c2c1 .
// result inactive

// query I would be grateful if you could indicate the recorded call for COc1ccc(N2CCN(C3=C(Cl)C(=O)c4ncccc4C3=O)CC2)cc1 .
// result inactive

// query I would be grateful if you could indicate the recorded call for Cc1cc(=O)oc2cc(OCCCOc3ccc(/C=C/C(=O)Nc4ccc(Br)cc4)cc3)ccc12 .
// result inactive

// query I would be grateful if you could indicate the recorded call for CC(=O)C1=C(C)NC(NNc2ccccc2)=NC1c1ccc([N+](=O)[O-])cc1 (centres undefined) .
// result inactive

// query I would be grateful if you could indicate the recorded call for O=C(/C=C/c1cccc(Br)c1)c1cccc(OCCCCOc2cccc(C(=O)/C=C/c3cccc(Br)c3)c2)c1 .
// result inactive

// query I would be grateful if you could indicate the recorded call for COC(=O)c1cccc(NC2=C(Cl)C(=O)c3nc(C)ccc3C2=O)c1 .
// result inactive

// query I would be grateful if you could indicate the recorded call for CN1CCN(CCNc2nc(-c3cccc(NS(=O)(=O)c4cccc5c(N(C)C)cccc45)c3)cs2)CC1 .
// result inactive

// query I would be grateful if you could indicate the recorded call for CC1=C(SCC(=O)OCCCCCC(C)C)C(=O)c2ccccc2C1=O .
// result inactive

// query I would be grateful if you could indicate the recorded call for Nc1ncc(-c2ccc3ncnc(NCc4ccccc4)c3c2)cn1 .
// result inactive

// query I would be grateful if you could indicate the recorded call for CN1CCN(Cc2ccc(NC(=O)c3cncc(C#Cc4cnc5ccc(O[C@@H]6CCOC6)nn45)c3)cc2C(F)(F)F)CC1 .
// result active

// query I would be grateful if you could indicate the recorded call for O=C(/C=C/c1csc(Br)n1)NO .
// result inactive

// query I would be grateful if you could indicate the recorded call for COc1cc(-c2nc(-c3ccccc3)[nH]c2-c2ccnc(NCCCNS(=O)(=O)c3ccc(C)cc3)n2)ccc1F .
// result inactive

---

Tested on: HS 578T breast
Assay: NCI-60 one-dose screen, 48 h (100 = growth as untreated, 0 = no growth, -100 = all killed)
Conditions: 10 µM unless noted
Compounds without any hit were thinned out: in the full panel of roughly 83,000, 20% have a hit.
Cut-off 90% on growth: below means Met, at or above means Not met.

// query Item CCOC(=O)c1ccccc1NC1=C(Cl)C(=O)c2nc(C)ccc2C1=O : growth beneath 90%, strictly?
// result Not met

// query Item CC1=C(C)C(=O)C(Nc2ccc3c(c2)OCCO3)=C(Br)C1=O : growth beneath 90%, strictly?
// result Not met

// query Item COc1ccc2c(c1)c(-c1nnc(N)nc1-c1c[nH]c3ccc(F)cc13)cn2C : growth beneath 90%, strictly?
// result Met

// query Item COc1ccccc1N1CCN(C2=C(Cl)C(=O)c3ncccc3C2=O)CC1 : growth beneath 90%, strictly?
// result Met

// query Item CCN(CC)c1ccc(/C=N/NC(=O)c2ccc(NS(C)(=O)=O)cc2)c(O)c1 : growth beneath 90%, strictly?
// result Met

---

Tested on: SN12C renal
Test: NCI-60 one-dose screen, 48 h
Settings: 10 µM unless noted
This is part of a sample that, as a whole, favours compounds with a hit. Of some 83,000 tested, about 20% had one in any assay. Active and inactive are the calls of the source. How the source made its calls: active means growth percent below 10; inactive means the rest.
Assign a class; possible classes are active, inactive

// query I would be grateful if you could indicate the recorded call for CCC1=Cc2c(OC)cccc2OC12C=Cc1c(OC)cccc1O2 (stereo unspecified) .
// result inactive

// query I would be grateful if you could indicate the recorded call for CN1CCN(Cc2ccc(NC(=O)c3cncc(C#Cc4cnc(N)nc4)c3)cc2C(F)(F)F)CC1 .
// result inactive

// query I would be grateful if you could indicate the recorded call for Cc1ccc(N2CCN(C3=C(Cl)C(=O)c4ncccc4C3=O)CC2)cc1 .
// result inactive

// query I would be grateful if you could indicate the recorded call for Cc1nc(N)sc1-c1csc(Nc2ccc(C(F)(F)F)cc2)n1 .
// result inactive

// query I would be grateful if you could indicate the recorded call for COc1ccc(C(=NNS(=O)(=O)c2ccc(C)cc2)c2ccccc2)cc1OC .
// result inactive

// query I would be grateful if you could indicate the recorded call for CCOC(=O)C1=C(C)NC(C)=C(C(=O)OC(C)C)C1c1cccc(C#N)c1 (stereo unspecified) .
// result inactive

// query I would be grateful if you could indicate the recorded call for COc1cc(-c2nc(-c3ccccc3)[nH]c2-c2ccnc(NCCCNS(=O)(=O)c3cccc(F)c3)n2)ccc1F .
// result inactive

// query I would be grateful if you could indicate the recorded call for Cc1ccc2c(n1)C(=O)C(Cl)=C(Nc1ccc(C#N)cc1)C2=O .
// result inactive

// query I would be grateful if you could indicate the recorded call for CC(O)c1cccc(/C(N)=N/C(N)=N/c2nc3ccccc3s2)c1 (stereo unspecified) .
// result inactive

// query I would be grateful if you could indicate the recorded call for Nc1nc(=O)n([C@H]2C[C@H](O)[C@@H](CO)O2)cc1C=O .
// result active

// query I would be grateful if you could indicate the recorded call for COc1cc(NC(=O)Nc2cccc(-c3cc(=O)c4c(OC)c(OC)c(OC)cc4o3)c2)cc(OC)c1OC .
// result inactive

---

System: HCT-116 colon
Test: NCI-60 one-dose screen, 48 h (100 = growth as untreated, 0 = no growth, -100 = all killed)
Conditions: 10 µM unless noted
This is part of a sample that, as a whole, favours compounds with a hit. Of some 83,000 tested, about 20% had one in any assay.
Record form. Attribute: growth. Fill in for each entry.
Kindly answer with a numeric value in %, unit omitted.

Field growth (system: HCT-116 colon) for entry Brc1ccc(-c2cc(-c3ccc4c(c3)OCCO4)n[nH]2)s1 = 24.7

Field growth (system: HCT-116 colon) for entry Cc1csc(/N=C(N)/N=C(\N)c2cccc(Br)c2)n1 = 88.8

Field growth (system: HCT-116 colon) for entry O=S(=O)(NCCCNc1nccc(-c2[nH]c(-c3ccccc3)nc2-c2ccc(F)c(O)c2)n1)c1ccccc1 = 77.9

Field growth (system: HCT-116 colon) for entry CC(=C(c1ccc(OCCCN(C)C)cc1)c1ccc(OCCCN(C)C)cc1)c1ccc(Cl)cc1 = 64.6

Field growth (system: HCT-116 colon) for entry CCOC(=O)c1cccnc1Nc1ccc(NC(=O)Nc2ccc(Cl)c(C(F)(F)F)c2)cc1 = 16.4

Field growth (system: HCT-116 colon) for entry CCOC(=O)c1ccc(NC2=CC(=O)C(C)=C(C)C2=O)cc1 = 56.5

Field growth (system: HCT-116 colon) for entry CC(C)C(/C=C/c1[nH]ncc1-c1cc(Cl)ccc1O)N1CCOCC1 (stereo not given) = 89.3

Field growth (system: HCT-116 colon) for entry CCC(=C(c1ccc(OCCN(C)C)cc1)c1ccc(OCCN(C)C)cc1)c1ccc(Cl)cc1 = -67.7

Field growth (system: HCT-116 colon) for entry Cc1ccc(C(=O)CSc2nc3ccccc3c(=O)n2C)cc1 = 89.2

Field growth (system: HCT-116 colon) for entry CCCCCC[n+]1ccc(SCC(=O)n2ccc3ccccc32)c2ccccc21 = 73.2

Field growth (system: HCT-116 colon) for entry C#CCOc1ccc(/C=N/Nc2nc(-c3ccc(OC)cc3)cs2)cc1 = 71.4

Field growth (system: HCT-116 colon) for entry COc1ccc(C2C(C#N)=C(/N=C/c3ccc(Cl)cc3)Oc3c2sc2c(C)cccc32)cc1 (stereo not given) = 13.4

Field growth (system: HCT-116 colon) for entry CNC(=O)Nc1ccc(Nc2cc(-c3ccc(-n4cccn4)cc3)[nH]n2)c(C)c1 = 107

Field growth (system: HCT-116 colon) for entry C#Cc1nc(/C=C\CCCCCCC(=O)NO)cs1 = 20.5

Field growth (system: HCT-116 colon) for entry Cc1[nH]c(C(=O)Nc2ccc(C(=O)NCC3CCNCC3)cc2OC(C)C)c(Cl)c1Cl = 33.2

Field growth (system: HCT-116 colon) for entry Cc1ccccc1Nc1nc(SC(C)C)nc(-c2ccccc2)c1C#N = 2.97

Field growth (system: HCT-116 colon) for entry CN1c2ccccc2Sc2cc(/C=N/Nc3ccnc4cc(Cl)ccc34)ccc21 = 57.3

Field growth (system: HCT-116 colon) for entry O=S(=O)(NCCCNc1nccc(-c2[nH]c(-c3ccccc3)nc2-c2ccc(F)c(O)c2)n1)c1ccc(C(F)(F)F)cc1 = 19.1

Field growth (system: HCT-116 colon) for entry Cc1ccc(OCc2occc2C(=O)N2CCOCC2)cc1 = 105

Field growth (system: HCT-116 colon) for entry COc1ccc(C(C)=C(c2ccc(OCCN(C)C)cc2)c2ccc(OCCN(C)C)cc2)cc1 = -81

Source: PubChem BioAssay (NCI)
